Recorded tissue uptake at 24 h for the following molecules
Experiment: Biodistribution in PC-3 tumor-bearing CB17-SCID mice
Type: in vivo
Settings: CB17-SCID, mouse, intestine, intravenous, 100 pmol, total radioactivity, 24 h after injection, 100 pmol, n = 4; read-out: Biodistribution, Intestine

molecule | tissue uptake at 24 h (%ID/g)
CC(C)C[C@H](NC(=O)C[C@H](O)[C@H](CC(C)C)NC(=O)[C@H](Cc1c[nH]cn1)NC(=O)CNC(=O)[C@@H](NC(=O)[C@H](C)NC(=O)[C@](C)(Cc1c[nH]c2ccccc12)NC(=O)[C@H](CCC(N)=O)NC(=O)[C@@H](Cc1ccccc1)NC(=O)CN1CCC(NC(=O)CN2CCN(CC(=O)O)CCN(CC(=O)O)CCN(CC(=O)O)CC2)CC1)C(C)C)C(N)=O [^177Lu-AMTG, ^177Lu-α-Me-L-Trp^8-RM2, metal not drawn] | 0.2
CC(C)C[C@H](NC(=O)C[C@H](O)[C@H](CC(C)C)NC(=O)[C@H](Cc1c[nH]cn1)NC(=O)CNC(=O)[C@@H](NC(=O)[C@H](C)NC(=O)[C@](C)(Cc1c[nH]c2ccccc12)NC(=O)[C@H](CCC(N)=O)NC(=O)[C@@H](Cc1ccccc1)NC(=O)CN1CCC(NC(=O)CCC(C(=O)O)N2CCN(CC(=O)O)CCN(CC(=O)O)CCN(CC(=O)O)CC2)CC1)C(C)C)C(N)=O (stereo partly drawn) [^177Lu-AMTG2, ^177Lu-DOTAGA-α-Me-L-Trp^8-RM2, metal not drawn] | 0.3

###

Experiment: Biodistribution in PC-3 tumor-bearing CB17-SCID mice
Assay type: in vivo
Conditions: CB17-SCID, mouse, lung, intravenous, 100 pmol, total radioactivity, 24 h after injection, 100 pmol, n = 4; read-out: Biodistribution, Lung
Let's look at some molecules and their measured tissue uptake at 24 h.

molecule | tissue uptake at 24 h (%ID/g)
CC(C)C[C@H](NC(=O)C[C@H](O)[C@H](CC(C)C)NC(=O)[C@H](Cc1c[nH]cn1)NC(=O)CNC(=O)[C@@H](NC(=O)[C@H](C)NC(=O)[C@](C)(Cc1c[nH]c2ccccc12)NC(=O)[C@H](CCC(N)=O)NC(=O)[C@@H](Cc1ccccc1)NC(=O)CN1CCC(NC(=O)CN2CCN(CC(=O)O)CCN(CC(=O)O)CCN(CC(=O)O)CC2)CC1)C(C)C)C(N)=O [^177Lu-AMTG, ^177Lu-α-Me-L-Trp^8-RM2, metal not drawn] | 0.04
CC(C)C[C@H](NC(=O)C[C@H](O)[C@H](CC(C)C)NC(=O)[C@H](Cc1c[nH]cn1)NC(=O)CNC(=O)[C@@H](NC(=O)[C@H](C)NC(=O)[C@](C)(Cc1c[nH]c2ccccc12)NC(=O)[C@H](CCC(N)=O)NC(=O)[C@@H](Cc1ccccc1)NC(=O)CN1CCC(NC(=O)CCC(C(=O)O)N2CCN(CC(=O)O)CCN(CC(=O)O)CCN(CC(=O)O)CC2)CC1)C(C)C)C(N)=O (stereo partly drawn) [^177Lu-AMTG2, ^177Lu-DOTAGA-α-Me-L-Trp^8-RM2, metal not drawn] | 0.05

###

Test: Biodistribution in PC-3 tumor-bearing CB17-SCID mice
Format: in vivo
Conditions: CB17-SCID, mouse, heart, intravenous, 3.62 mg/kg, total radioactivity, 24 h after injection, coinjection of natLu-RM2 3.62 mg/kg, n = 3; read-out: Biodistribution, Heart, competition study
Listed below: tissue uptake at 24 h values for each entry.

compound | tissue uptake at 24 h (%ID/g)
CC(C)C[C@H](NC(=O)C[C@H](O)[C@H](CC(C)C)NC(=O)[C@H](Cc1c[nH]cn1)NC(=O)CNC(=O)[C@@H](NC(=O)[C@H](C)NC(=O)[C@](C)(Cc1c[nH]c2ccccc12)NC(=O)[C@H](CCC(N)=O)NC(=O)[C@@H](Cc1ccccc1)NC(=O)CN1CCC(NC(=O)CCC(C(=O)O)N2CCN(CC(=O)O)CCN(CC(=O)O)CCN(CC(=O)O)CC2)CC1)C(C)C)C(N)=O (stereo partly drawn) [^177Lu-AMTG2, ^177Lu-DOTAGA-α-Me-L-Trp^8-RM2, metal not drawn] | 0.02
CC(C)C[C@H](NC(=O)C[C@H](O)[C@H](CC(C)C)NC(=O)[C@H](Cc1c[nH]cn1)NC(=O)CNC(=O)[C@@H](NC(=O)[C@H](C)NC(=O)[C@](C)(Cc1c[nH]c2ccccc12)NC(=O)[C@H](CCC(N)=O)NC(=O)[C@@H](Cc1ccccc1)NC(=O)CN1CCC(NC(=O)CN2CCN(CC(=O)O)CCN(CC(=O)O)CCN(CC(=O)O)CC2)CC1)C(C)C)C(N)=O [^177Lu-AMTG, ^177Lu-α-Me-L-Trp^8-RM2, metal not drawn] | 0.02

Cited source: paper PMC9454457
